- TEST_SYSTEM: T1, GST-MDMX containing full-length human MDMX (human, UniProt O15151 1-490)
- T1 construct: mature; MDMX', expressed in E. coli as a GST fusion; 'mature' stands for full-length; not shown: GST tag
- T1 sequence (looked up): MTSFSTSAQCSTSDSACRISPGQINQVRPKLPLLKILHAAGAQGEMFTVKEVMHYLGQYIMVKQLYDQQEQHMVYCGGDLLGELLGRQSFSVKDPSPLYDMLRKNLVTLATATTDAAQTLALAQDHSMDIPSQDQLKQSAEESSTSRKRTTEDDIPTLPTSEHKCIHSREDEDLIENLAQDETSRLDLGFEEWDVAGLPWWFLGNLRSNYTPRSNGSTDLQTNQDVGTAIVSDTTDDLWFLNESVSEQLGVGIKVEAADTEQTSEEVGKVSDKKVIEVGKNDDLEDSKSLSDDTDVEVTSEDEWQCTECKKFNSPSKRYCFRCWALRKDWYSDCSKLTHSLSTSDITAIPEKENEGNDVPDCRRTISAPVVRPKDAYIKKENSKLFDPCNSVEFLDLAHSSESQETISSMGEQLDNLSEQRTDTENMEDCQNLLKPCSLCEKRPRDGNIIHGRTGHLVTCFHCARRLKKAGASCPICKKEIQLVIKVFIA
- PROTOCOL_TEXT: competition ELISA: peptide inhibits GST-MDMX binding to coated His6-p53
Numbered stars: 1 amine (or outer) side, 2 acyl side, 3 side chain; on linkers, the order of the positions; unused ones are H or OH. Bridge positions count the residues as written; N and C are the ends. Square brackets hold non-standard residues; d marks the D form. Ends that are not written are not given here. CH2(3,3'-bipyridine-6,6')CH2 = c1cc(C[*:1])ncc1-c1ccc(C[*:2])nc1; Biphenyl(4,4'-CH2)2 = c1cc(-c2ccc(C[*:2])cc2)ccc1C[*:1]
Each record is given met if its reported IC50 is strictly below 900 nM. Records at or above 900 nM are given not met.

Use the examples below as a reference point.
1. Ac-LTF[dC]HYWAQLCS-NH2 (linker 4-11 via CH2(3,3'-bipyridine-6,6')CH2; SMILES CC(=O)N[C@@H](CC(C)C)C(=O)N[C@H](C(=O)N[C@@H](Cc1ccccc1)C(=O)N[C@@H]1CSCc2ccc(cn2)-c2ccc(nc2)CSC[C@@H](C(=O)N[C@@H](CO)C(N)=O)NC(=O)[C@H](CC(C)C)NC(=O)[C@H](CCC(N)=O)NC(=O)[C@H](C)NC(=O)[C@H](Cc2c[nH]c3ccccc23)NC(=O)[C@H](Cc2ccc(O)cc2)NC(=O)[C@H](Cc2c[nH]cn2)NC1=O)[C@@H](C)O, Printed as LTFc"HYWAQLC"S) [PDI analog 3b (Bpy cross-linked D,L-dicysteine peptide)] ... met
2. Ac-LTFCHYWAQLCS-NH2 (linker 4-11 via Biphenyl(4,4'-CH2)2, Printed as LTFC'HYWAQLC'S (C' = Bph-linked cysteine)) [PDI analog 1a (Bph cross-linked L,L-dicysteine peptide)] ... not met
3. Ac-LTFCRYWARLCS-NH2 (linker 4-11 via Biphenyl(4,4'-CH2)2, Printed as LTFC'RYWARLC'S) [PDI analog 2a (Bph cross-linked, two arginines)] ... not met
4. LTF[dC]HYWAQLCS-NH2 (not fully specified (N-terminus); printed as LTFcHYWAQLCS; cysteine pairing not given here, not cross-linked; also called peptide 3) [PDI analog 3 (linear (D,L)-dicysteine peptide)] ... met

# input for lookup
Query: Please state whether IC50 is below 900 nM for Ac-LTF[dC]HYWAQLCS-NH2 (linker 4-11 via Biphenyl(4,4'-CH2)2; SMILES CC(=O)N[C@@H](CC(C)C)C(=O)N[C@H](C(=O)N[C@@H](Cc1ccccc1)C(=O)N[C@@H]1CSCc2ccc(cc2)-c2ccc(cc2)CSC[C@@H](C(=O)N[C@@H](CO)C(N)=O)NC(=O)[C@H](CC(C)C)NC(=O)[C@H](CCC(N)=O)NC(=O)[C@H](C)NC(=O)[C@H](Cc2c[nH]c3ccccc23)NC(=O)[C@H](Cc2ccc(O)cc2)NC(=O)[C@H](Cc2c[nH]cn2)NC1=O)[C@@H](C)O, Printed as LTFc'HYWAQLC'S) [PDI analog 3a (Bph cross-linked D,L-dicysteine peptide)]
Response: met
